System: Sta. aureus MS15027
Assay: Antibacterial activity (MIC), agar plate dilution method
Format: cell-based
Settings: Staphylococcus aureus; 37° C., 20 hours; Sta. aureus MS15027; read-out: Antibacterial activity (MIC)
Measured Property: MIC (µg/mL)
Numbers only; they are read as µg/mL.

Compound	MIC, µg/mL
CCC(=O)O[C@@H]1CC(=O)O[C@H](C)C/C=C/C=C/C(=O)[C@H](C)C[C@H](CC=O)[C@H](O[C@@H]2O[C@H](C)[C@@H](O[C@H]3C[C@@](C)(OC)[C@@H](OCC=C(C)C)[C@H](C)O3)[C@H](N(C)C)[C@H]2O)[C@H]1OC [Compound (40)]	1.56

Record lookup: for Sta. aureus MS15027, what MIC belongs to CCC(=O)O[C@@H]1CC(=O)O[C@H](C)C/C=C/C=C/C(=O)[C@H](C)C[C@H](CC=O)[C@H](O[C@@H]2O[C@H](C)[C@@H](O[C@H]3C[C@@](C)(OC)[C@@H](OCCCC(C)C)[C@H](C)O3)[C@H](N(C)C)[C@H]2O)[C@H]1OC [Compound (43)] ?
1.56

Query the reported MIC for Sta. aureus MS15027; item: CCC(=O)O[C@@H]1CC(=O)O[C@H](C)C/C=C/C=C/[C@H](OC(C)=O)[C@H](C)C[C@H](CC=O)[C@H](O[C@@H]2O[C@H](C)[C@@H](O[C@H]3C[C@@](C)(OC(C)=O)[C@@H](OC(=O)CC)[C@H](C)O3)[C@H](N(C)C)[C@H]2O)[C@H]1OC [Miokamycin, miokamycin, reference compound]
0.78

Tell me reported MIC for CCC(=O)O[C@@H]1CC(=O)O[C@H](C)C/C=C/C=C/C(=O)[C@H](C)C[C@H](CC=O)[C@H](O[C@@H]2O[C@H](C)[C@@H](O[C@H]3C[C@@](C)(OC)[C@@H](OCCC(C)C)[C@H](C)O3)[C@H](N(C)C)[C@H]2O)[C@H]1OC [Compound (14)] , tested with Sta. aureus MS15027.
0.78

GET /values?readout=MIC&system=Sta. aureus MS15027&item= CCCCO[C@H]1[C@H](C)O[C@@H](O[C@H]2[C@H](N(C)C)[C@@H](O)[C@H](O[C@H]3[C@@H](CC=O)C[C@@H](C)C(=O)/C=C/C=C/C[C@@H](C)OC(=O)C[C@@H](OC(=O)CC)[C@@H]3OC)O[C@@H]2C)C[C@@]1(C)OC [Compound (41)]
0.78

Entry CCC(=O)O[C@@H]1CC(=O)O[C@H](C)C/C=C/C=C/C(=O)[C@H](C)C[C@H](CC=O)[C@H](O[C@@H]2O[C@H](C)[C@@H](O[C@H]3C[C@@](C)(OC)[C@@H](OCc4ccccc4)[C@H](C)O3)[C@H](N(C)C)[C@H]2O)[C@H]1OC [Compound (44)] , system Sta. aureus MS15027: what MIC was measured?
1.56
